Experiment description: In vivo pharmacokinetic assays in rats (intragastric and intravenous), plasma Compound 14 by LC-MS/MS
Parameters: species or system SD rats
Settings: male, SD, rat, in vivo, po, 15 mg/kg, rats, 15 mg/kg Compound 14 intragastric; average value
Value type: Tmax (h)
Please respond with the number in h and leave the unit unwritten.

Write down Tmax measured for item CN1CC(c2ccc(-c3ccc4c(c3)OC[C@H]3[C@H](CO)OC(=O)N43)cn2)OC1=O (stereo partly shown)
1

----------
Experiment description: In vivo pharmacokinetic assays in rats (intragastric and intravenous), plasma Compound 14 by LC-MS/MS
Design: species or system SD rats
Settings: male, SD, rat, in vivo, 5 mg/kg Compound 14 intravenous injection, average value, read-out: CLz (plasma clearance) (converted)
Value type: clearance (mL/min/kg)
The answer is to be given in mL/min/kg; state only the numeric part.

Report clearance for CN1CC(c2ccc(-c3ccc4c(c3)OC[C@H]3[C@H](CO)OC(=O)N43)cn2)OC1=O (stereo partly shown) [Compound 14]
53.7

----------
Experiment description: In vivo pharmacokinetic assays in rats (intragastric and intravenous), plasma Compound 14 by LC-MS/MS
Set-up: species or system SD rats
Settings: male, SD, rat, in vivo, 15 mg/kg, 15 mg/kg Compound 14 intragastric vs 5 mg/kg intravenous, dose corrected, read-out: F (absolute bioavailability)
Value type: bioavailability
Dear colleague, please send the value followed by its unit.

Hello, please tell me recorded bioavailability for this one: CN1CC(c2ccc(-c3ccc4c(c3)OC[C@H]3[C@H](CO)OC(=O)N43)cn2)OC1=O (stereo partly shown)
44.8%

----------
Experiment description: In vivo pharmacokinetic assays in rats (intragastric and intravenous), plasma Compound 14 by LC-MS/MS
Set-up: species or system SD rats
Settings: male, SD, rat, in vivo, po, 15 mg/kg, rats, 15 mg/kg Compound 14 intragastric; individual animals No. 15-18
Value type: half-life (min)
Note: unit min is implicit; provide only the numeric part.

Supply half-life value. Item: CN1CC(c2ccc(-c3ccc4c(c3)OC[C@H]3[C@H](CO)OC(=O)N43)cn2)OC1=O (stereo partly shown)
137

----------
Tested on: Streptococcus pneumoniae resistant strains (4 strains)
Experiment description: In vitro antibacterial activity, MIC by agar double dilution method
Assay type: cell-based
Settings: clinical isolates
Exercise: state measured MIC for each of the compounds provided.
Use µg/mL as the unit, but write only the number.

Identify measured MIC associated with O=C1OC(CO)CN1c1ccc(-c2ccc3c(c2)OC[C@H]2[C@H](CO)OC(=O)N32)cn1 (stereo partly shown) [Compound 24]
1

Given O=C1O[C@@H](CO)[C@@H]2COc3cc(-c4ccc(C5(O)CCCC5)nc4)ccc3N12 [Compound 10] , respond with its MIC.
2

Tell me its MIC given Cc1cc(N2CCOC2=O)ncc1-c1ccc2c(c1)OC[C@H]1[C@H](CO)OC(=O)N21 [Compound 22] as the entry.
2

----------
Experiment description: In vivo pharmacokinetic assays in rats (intragastric and intravenous), plasma Compound 14 by LC-MS/MS
Design: species or system SD rats
Settings: male, SD, rat, in vivo, po, 15 mg/kg, rats, 15 mg/kg Compound 14 intragastric; average value
Value type: Cmax (ng/mL)
Form entry: value (ng/mL) — number only.

Respond only with Cmax recorded for CN1CC(c2ccc(-c3ccc4c(c3)OC[C@H]3[C@H](CO)OC(=O)N43)cn2)OC1=O (stereo partly shown)
809

Entry source: patent US9416144B2
